All values here come from PubChem BioAssay AID1259407.

system: CCRIS mutagenicity, Ames/micronucleus/aberration tests; test: CCRIS mutagenicity studies; details: Test System: AMES SALMONELLA TYPHIMURIUM; Strain/Indicator: TA100(NR); Metabolic Activation: NONE; Method: STANDARD PLATE
Active and inactive are the calls of the source. The rule behind the calls is not given here.
Possible outcomes: class 1 (active), class 0 (inactive)

{"columns": ["smilesRepr", "studyTarget", "labelValue"],
 "data": [
  ["COc1cccc2c1ccc1c(C(=O)O)cc3c(c12)OCO3", "CCRIS mutagenicity, Ames/micronucleus/aberration tests", "class 1"],
  ["O=[N+]([O-])c1ccc2c3c(cccc13)-c1cc(O)ccc1-2", "CCRIS mutagenicity, Ames/micronucleus/aberration tests", "class 0"],
  ["O=[N+]([O-])OCC(CO[N+](=O)[O-])O[N+](=O)[O-]", "CCRIS mutagenicity, Ames/micronucleus/aberration tests", "class 0"],
  ["COc1ccc2c(ccc3oc([N+](=O)[O-])cc32)c1", "CCRIS mutagenicity, Ames/micronucleus/aberration tests", "class 1"]
]}
